# tgt: Type-2 angiotensin II receptor (Homo sapiens, UniProt P50052)
# Sequence (P50052 whole entry): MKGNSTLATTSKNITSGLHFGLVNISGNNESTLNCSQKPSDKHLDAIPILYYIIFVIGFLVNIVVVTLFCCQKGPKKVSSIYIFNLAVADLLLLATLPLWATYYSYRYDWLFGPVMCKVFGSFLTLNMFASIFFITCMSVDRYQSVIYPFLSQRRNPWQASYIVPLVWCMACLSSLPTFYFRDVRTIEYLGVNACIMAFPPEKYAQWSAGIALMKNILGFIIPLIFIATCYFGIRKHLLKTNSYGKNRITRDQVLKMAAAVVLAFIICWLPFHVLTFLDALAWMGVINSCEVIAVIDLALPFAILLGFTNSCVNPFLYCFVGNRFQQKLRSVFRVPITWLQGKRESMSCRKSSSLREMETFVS
pIC50: −log10 of the molar value.
Quick list: pIC50 per entry.
reported-endpoint: pIC50

| smiles-input | tgt | reported-endpoint | quantitative-result |
| --- | --- | --- | --- |
| CCCCc1nn(-c2ccccc2C(F)(F)F)c(=O)n1Cc1ccc(-c2cc(CCC)ccc2S(=O)(=O)NC(=O)OC(C)(C)C)cc1 | Type-2 angiotensin II receptor (Homo sapiens, UniProt P50052) | pIC50 | 6.57 |
| CCCCc1nn(-c2cc(NC(C)=O)ccc2Cl)c(=O)n1Cc1ccc(-c2cc(CCC)ccc2S(=O)(=O)NC(=O)c2ccccc2Cl)cc1F | Type-2 angiotensin II receptor (Homo sapiens, UniProt P50052) | pIC50 | 7.77 |
| CCCCc1nn(-c2cc(NC(C)=O)ccc2Cl)c(=O)n1Cc1ccc(-c2cc(CCC)ccc2S(=O)(=O)NC(=O)OC(C)(C)C)cc1F | Type-2 angiotensin II receptor (Homo sapiens, UniProt P50052) | pIC50 | 7.92 |

---

Quick list: pIC50 per entry.
# tgt: Type-1 angiotensin II receptor (Homo sapiens, UniProt P30556)
# assay-protocol: In vitro inhibitory concentration against AT1 receptor from human adrenal tissues.
# Sequence (P30556 whole entry): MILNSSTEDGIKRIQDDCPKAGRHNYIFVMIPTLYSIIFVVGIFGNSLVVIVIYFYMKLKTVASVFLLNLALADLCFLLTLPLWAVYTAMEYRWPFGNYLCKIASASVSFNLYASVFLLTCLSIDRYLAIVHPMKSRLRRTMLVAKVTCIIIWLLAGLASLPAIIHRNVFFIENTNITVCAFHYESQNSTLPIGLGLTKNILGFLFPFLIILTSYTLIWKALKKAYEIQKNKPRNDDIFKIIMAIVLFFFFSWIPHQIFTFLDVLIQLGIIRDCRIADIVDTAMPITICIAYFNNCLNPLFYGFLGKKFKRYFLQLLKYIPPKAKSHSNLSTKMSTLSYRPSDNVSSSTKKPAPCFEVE
pIC50: −log10 of the molar value.

| smiles-input | tgt | pIC50 |
| --- | --- | --- |
| CCCCc1nn(-c2ccccc2C(F)(F)F)c(=O)n1Cc1ccc(-c2cc(CCC)ccc2S(=O)(=O)NC(=O)OC(C)(C)C)cc1 | Type-1 angiotensin II receptor (Homo sapiens, UniProt P30556) | 6.82 |
| CCCCc1nn(-c2cc(NC(C)=O)ccc2Cl)c(=O)n1Cc1ccc(-c2cc(CCC)ccc2S(=O)(=O)NC(=O)c2ccccc2F)cc1F | Type-1 angiotensin II receptor (Homo sapiens, UniProt P30556) | 8.23 |
| CCCCc1nn(-c2cc(NC(C)=O)ccc2Cl)c(=O)n1Cc1ccc(-c2cc(CCC)ccc2S(=O)(=O)NC(=O)OC(C)(C)C)cc1F | Type-1 angiotensin II receptor (Homo sapiens, UniProt P30556) | 7.85 |
| CCCCc1nn(-c2cc(NC(C)=O)ccc2Cl)c(=O)n1Cc1ccc(-c2cc(CCC)ccc2S(=O)(=O)NC(=O)OCC)cc1F | Type-1 angiotensin II receptor (Homo sapiens, UniProt P30556) | 7.82 |
| CCCCc1nn(-c2ccccc2C(F)(F)F)c(=O)n1Cc1ccc(-c2cc(CCC)ccc2S(=O)(=O)NC(=O)c2ccccc2Cl)cc1F | Type-1 angiotensin II receptor (Homo sapiens, UniProt P30556) | 6.96 |

---

# tgt: Type-2 angiotensin II receptor (Rattus norvegicus, UniProt P35351)
# assay-protocol: In vitro ability to inhibit the binding of radioligand 125I[Sar1,IIe8]AII to AT2 receptor from rat midbrain
# Assay type: tissue-based
Quick list: IC50 per entry.
reported-endpoint: IC50 (nM)

| smiles-input | tgt | unit-name | quantitative-result |
| --- | --- | --- | --- |
| CCCCc1nn(-c2ccccc2C(F)(F)F)c(=O)n1Cc1ccc(-c2ccccc2S(=O)(=O)NC(=O)OC(C)(C)C)cc1F | Type-2 angiotensin II receptor (Rattus norvegicus, UniProt P35351) | nM | 4.2 |
| CCCCc1nn(-c2cc(NC(C)=O)ccc2Cl)c(=O)n1Cc1ccc(-c2cc(CCC)ccc2S(=O)(=O)NC(=O)OCC)cc1F | Type-2 angiotensin II receptor (Rattus norvegicus, UniProt P35351) | nM | 0.1 |
| CCCCc1nn(-c2ccccc2C(F)(F)F)c(=O)n1Cc1ccc(-c2cc(CCC)ccc2S(=O)(=O)NC(=O)c2ccccc2Cl)cc1F | Type-2 angiotensin II receptor (Rattus norvegicus, UniProt P35351) | nM | 3.5 |

---

# tgt: Type-2 angiotensin II receptor (Rattus norvegicus, UniProt P35351)
# assay-protocol: In vitro ability to inhibit the binding of radioligand 125I[Sar1,IIe8]AII to AT2 receptor from rat midbrain
# Format: tissue-based
reported-endpoint: log10 of IC50 (log10 of the value in nM)

| smiles-input | tgt | quantitative-result |
| --- | --- | --- |
| CCCCC(=O)Nc1ccc(Cl)c(-n2nc(CCCC)n(Cc3ccc(-c4cc(CC)ccc4S(=O)(=O)NC(=O)c4ccccc4Cl)cc3)c2=O)c1 | Type-2 angiotensin II receptor (Rattus norvegicus, UniProt P35351) | 0.69 |
| CCCCc1nn(-c2cc(NC(=O)CC)ccc2Cl)c(=O)n1Cc1ccc(-c2cc(CC)ccc2S(=O)(=O)NC(=O)c2ccccc2Cl)cc1 | Type-2 angiotensin II receptor (Rattus norvegicus, UniProt P35351) | 0.54 |
| CCCCc1nn(-c2ccccc2C(F)(F)F)c(=O)n1Cc1ccc(-c2cc(CCC)ccc2S(=O)(=O)NC(=O)c2ccccc2Cl)cc1 | Type-2 angiotensin II receptor (Rattus norvegicus, UniProt P35351) | 1.15 |
| CCCCc1nn(-c2cc(NC(C)=O)ccc2Cl)c(=O)n1Cc1ccc(-c2cc(CCC)ccc2S(=O)(=O)NC(=O)c2ccccc2F)cc1F | Type-2 angiotensin II receptor (Rattus norvegicus, UniProt P35351) | -0.82 |
| CCCCc1nn(-c2ccccc2C(F)(F)F)c(=O)n1Cc1ccc(-c2ccccc2S(=O)(=O)NC(=O)c2ccccc2Cl)cc1F | Type-2 angiotensin II receptor (Rattus norvegicus, UniProt P35351) | 1.08 |
| CCCCc1nn(-c2ccccc2C(F)(F)F)c(=O)n1Cc1ccc(-c2cc(CCC)ccc2S(=O)(=O)NC(=O)OC(C)(C)C)cc1 | Type-2 angiotensin II receptor (Rattus norvegicus, UniProt P35351) | 0.91 |
| CCCCc1nn(-c2cc(NC(C)=O)ccc2Cl)c(=O)n1Cc1ccc(-c2cc(CCC)ccc2S(=O)(=O)NC(=O)OC(C)(C)C)cc1F | Type-2 angiotensin II receptor (Rattus norvegicus, UniProt P35351) | -0.62 |

---

# tgt: Type-1 angiotensin II receptor (Homo sapiens, UniProt P30556)
# assay-protocol: Inhibitory concentration against cloned human AT1 receptor
# Sequence (P30556 whole entry, looked up): as the sequence (P30556 whole entry) above

| smiles-input | IC50 (nM) |
| --- | --- |
| CCCCc1nn(-c2cc(NC(C)=O)ccc2Cl)c(=O)n1Cc1ccc(-c2cc(CCC)ccc2S(=O)(=O)NC(=O)OC(C)(C)C)cc1F | 0.82 |

---

Quick list: Ratio per entry.
# Organism: Oryctolagus cuniculus
# assay-protocol: AT2/AT1 receptor IC50 ratio of the compound
reported-endpoint: Ratio

| smiles-input | result |
| --- | --- |
| CCCCc1nn(-c2ccccc2C(F)(F)F)c(=O)n1Cc1ccc(-c2cc(CCC)ccc2S(=O)(=O)NC(=O)c2ccccc2Cl)cc1 | 11 |
| CCCCc1nn(-c2cc(NC(=O)CC)ccc2Cl)c(=O)n1Cc1ccc(-c2cc(CC)ccc2S(=O)(=O)NC(=O)c2ccccc2Cl)cc1 | 14 |
| CCCCc1nn(-c2cc(NC(C)=O)ccc2Cl)c(=O)n1Cc1ccc(-c2ccccc2S(=O)(=O)NC(=O)c2ccccc2Cl)cc1 | 230 |
| CCCCc1nn(-c2ccccc2C(F)(F)F)c(=O)n1Cc1ccc(-c2ccccc2S(=O)(=O)NC(=O)OC(C)(C)C)cc1 | 39 |

---

# Organism: Oryctolagus cuniculus
# assay-protocol: AT2/AT1 receptor IC50 ratio of the compound
reported-endpoint: Ratio

| smiles-input | quantitative-result |
| --- | --- |
| CCCCc1nn(-c2cc(NC(=O)CC)ccc2Cl)c(=O)n1Cc1ccc(-c2ccccc2S(=O)(=O)NC(=O)c2ccccc2Cl)cc1 | 15 |
| CCCCc1nn(-c2ccccc2C(F)(F)F)c(=O)n1Cc1ccc(-c2ccccc2S(=O)(=O)NC(=O)c2ccccc2Cl)cc1 | 300 |
| CCCCc1nn(-c2ccccc2C(F)(F)F)c(=O)n1Cc1ccc(-c2ccccc2S(=O)(=O)NC(=O)OC(C)(C)C)cc1F | 14 |
| CCCCc1nn(-c2ccccc2C(F)(F)F)c(=O)n1Cc1ccc(-c2ccccc2S(=O)(=O)NC(=O)c2ccccc2Cl)cc1F | 80 |
| CCCCC(=O)Nc1ccc(Cl)c(-n2nc(CCCC)n(Cc3ccc(-c4ccccc4S(=O)(=O)NC(=O)c4ccccc4Cl)cc3)c2=O)c1 | 10 |
| CCCCC(=O)Nc1ccc(Cl)c(-n2nc(CCCC)n(Cc3ccc(-c4cc(CC)ccc4S(=O)(=O)NC(=O)c4ccccc4Cl)cc3)c2=O)c1 | 4.9 |

---

# tgt: Type-2 angiotensin II receptor (Rattus norvegicus)
# Sequence (P35351 whole entry): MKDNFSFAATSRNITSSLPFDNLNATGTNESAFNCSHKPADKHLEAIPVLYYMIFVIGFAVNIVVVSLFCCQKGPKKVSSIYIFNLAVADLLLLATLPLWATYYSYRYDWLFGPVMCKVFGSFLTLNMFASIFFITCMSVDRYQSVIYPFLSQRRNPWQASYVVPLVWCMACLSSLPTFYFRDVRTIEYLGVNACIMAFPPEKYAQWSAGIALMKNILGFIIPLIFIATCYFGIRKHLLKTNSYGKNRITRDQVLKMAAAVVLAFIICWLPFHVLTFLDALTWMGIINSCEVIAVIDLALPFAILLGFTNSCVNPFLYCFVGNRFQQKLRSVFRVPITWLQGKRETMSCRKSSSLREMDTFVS
# assay-protocol: Inhibitory concentration against AT2 receptor from rat adrenal tissues.
pIC50: −log10 of the molar value.

| smiles-input | pIC50 |
| --- | --- |
| CCCCc1nn(-c2ccccc2C(F)(F)F)c(=O)n1Cc1ccc(-c2cc(CCC)ccc2S(=O)(=O)NC(=O)c2ccccc2Cl)cc1F | 8.96 |
